- experimental.target: KRAS G13D antigen (G13D-RT6, SEQ ID NO: 20) loaded on Lovo-DPA0301:DPB0501 cells (human)
- protocol.description: cell-based or functional assay
observable: TCR Mut RLU/WT RLU (ratio)
Please give a number only; it is taken to be in ratio.

B8.2.4 TCR mutant β95Q-N (TCR, V domains shown) V domain 1: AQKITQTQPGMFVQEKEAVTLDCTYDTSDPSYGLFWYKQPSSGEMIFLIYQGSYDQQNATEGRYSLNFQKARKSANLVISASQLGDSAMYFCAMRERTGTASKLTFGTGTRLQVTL V domain 2: DVKVTQSSRYLVKRTGEKVFLECVQDMDHENMFWYRQDPGLGLRLIYFSYDVKMKEKGDIPEGYSVSREKKERFSLILESASTNQTSMYLCASSNTVPPQHFGDGTRLSILE :: 0.6
B8.2.4 TCR mutant β96T-L (TCR, V domains shown) V domain 1: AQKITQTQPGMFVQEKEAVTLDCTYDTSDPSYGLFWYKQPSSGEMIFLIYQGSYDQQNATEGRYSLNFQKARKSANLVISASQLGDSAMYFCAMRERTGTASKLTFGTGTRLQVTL V domain 2: DVKVTQSSRYLVKRTGEKVFLECVQDMDHENMFWYRQDPGLGLRLIYFSYDVKMKEKGDIPEGYSVSREKKERFSLILESASTNQTSMYLCASSQLVPPQHFGDGTRLSILE :: 0.31
B8.2.4 TCR mutant β97V-Q (TCR, V domains shown) V domain 1: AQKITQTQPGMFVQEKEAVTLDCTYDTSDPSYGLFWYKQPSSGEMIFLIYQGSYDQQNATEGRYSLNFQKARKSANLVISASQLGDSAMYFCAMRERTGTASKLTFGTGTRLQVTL V domain 2: DVKVTQSSRYLVKRTGEKVFLECVQDMDHENMFWYRQDPGLGLRLIYFSYDVKMKEKGDIPEGYSVSREKKERFSLILESASTNQTSMYLCASSQTQPPQHFGDGTRLSILE :: 0.3
B8.2.4 TCR mutant β97V-D (TCR, V domains shown) V domain 1: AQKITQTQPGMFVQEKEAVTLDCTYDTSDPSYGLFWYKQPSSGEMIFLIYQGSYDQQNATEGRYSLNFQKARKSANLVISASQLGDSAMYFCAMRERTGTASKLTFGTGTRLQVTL V domain 2: DVKVTQSSRYLVKRTGEKVFLECVQDMDHENMFWYRQDPGLGLRLIYFSYDVKMKEKGDIPEGYSVSREKKERFSLILESASTNQTSMYLCASSQTDPPQHFGDGTRLSILE :: 0.21
B8.2.4 TCR mutant β98P-T (TCR, V domains shown) V domain 1: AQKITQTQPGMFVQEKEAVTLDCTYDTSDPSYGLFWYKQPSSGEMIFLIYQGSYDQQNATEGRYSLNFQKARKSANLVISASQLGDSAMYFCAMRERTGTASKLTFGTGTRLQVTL V domain 2: DVKVTQSSRYLVKRTGEKVFLECVQDMDHENMFWYRQDPGLGLRLIYFSYDVKMKEKGDIPEGYSVSREKKERFSLILESASTNQTSMYLCASSQTVTPQHFGDGTRLSILE :: 0.47
B8.2.4 TCR mutant β97V-M (TCR, V domains shown) V domain 1: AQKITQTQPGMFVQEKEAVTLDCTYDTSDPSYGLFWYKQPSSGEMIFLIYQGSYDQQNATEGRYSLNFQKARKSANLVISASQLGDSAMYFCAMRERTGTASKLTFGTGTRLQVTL V domain 2: DVKVTQSSRYLVKRTGEKVFLECVQDMDHENMFWYRQDPGLGLRLIYFSYDVKMKEKGDIPEGYSVSREKKERFSLILESASTNQTSMYLCASSQTMPPQHFGDGTRLSILE :: 0.35

Qu. Fill in the blank: the reported TCR Mut RLU/WT RLU of B8.2.4 TCR mutant β96T-I (TCR, V domains shown) V domain 1: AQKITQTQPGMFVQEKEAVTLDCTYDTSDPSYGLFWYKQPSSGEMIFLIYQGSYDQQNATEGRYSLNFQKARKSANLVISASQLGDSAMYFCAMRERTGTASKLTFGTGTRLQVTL V domain 2: DVKVTQSSRYLVKRTGEKVFLECVQDMDHENMFWYRQDPGLGLRLIYFSYDVKMKEKGDIPEGYSVSREKKERFSLILESASTNQTSMYLCASSQIVPPQHFGDGTRLSILE is ____.
Ans. 0.41

Qu. Fill in the blank: the reported TCR Mut RLU/WT RLU of B8.2.4 TCR mutant β95Q-G (TCR, V domains shown) V domain 1: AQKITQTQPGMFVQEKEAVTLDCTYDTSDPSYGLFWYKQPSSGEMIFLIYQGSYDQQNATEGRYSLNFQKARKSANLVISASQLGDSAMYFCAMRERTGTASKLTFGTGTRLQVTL V domain 2: DVKVTQSSRYLVKRTGEKVFLECVQDMDHENMFWYRQDPGLGLRLIYFSYDVKMKEKGDIPEGYSVSREKKERFSLILESASTNQTSMYLCASSGTVPPQHFGDGTRLSILE is ____.
Ans. 1.03

Qu. Fill in the blank: the reported TCR Mut RLU/WT RLU of B8.2.4 TCR mutant β96T-Y (TCR, V domains shown) V domain 1: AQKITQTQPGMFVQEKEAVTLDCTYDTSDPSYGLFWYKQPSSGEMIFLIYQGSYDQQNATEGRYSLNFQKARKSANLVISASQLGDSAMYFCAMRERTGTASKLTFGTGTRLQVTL V domain 2: DVKVTQSSRYLVKRTGEKVFLECVQDMDHENMFWYRQDPGLGLRLIYFSYDVKMKEKGDIPEGYSVSREKKERFSLILESASTNQTSMYLCASSQYVPPQHFGDGTRLSILE is ____.
Ans. 0.4

Qu. Fill in the blank: the reported TCR Mut RLU/WT RLU of B8.2.4 TCR mutant β96T-H (TCR, V domains shown) V domain 1: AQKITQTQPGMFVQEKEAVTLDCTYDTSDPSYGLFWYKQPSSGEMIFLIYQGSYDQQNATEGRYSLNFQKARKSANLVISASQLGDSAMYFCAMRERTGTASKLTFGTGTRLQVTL V domain 2: DVKVTQSSRYLVKRTGEKVFLECVQDMDHENMFWYRQDPGLGLRLIYFSYDVKMKEKGDIPEGYSVSREKKERFSLILESASTNQTSMYLCASSQHVPPQHFGDGTRLSILE is ____.
Ans. 0.82
